Target: HLA-B*15:42
Test: IEDB peptide-MHC binding, purified MHC/competitive/fluorescence; filed as Kd, often an IC50 or EC50 that approximates it; bounds were set here for any values at or beyond the usual limits of such assays
Conditions: source organism: Human herpesvirus 4 strain B95-8
readout.name: Kd

- sequence.input: "RRAALSGHL"
  tgt: "HLA-B*15:42"
  result: "≥ 5 µM"

====

Target: HLA-A*32:01
Test: IEDB peptide-MHC binding, purified MHC/competitive/radioactivity; filed as Kd, often an IC50 or EC50 that approximates it; bounds were set here for any values at or beyond the usual limits of such assays
Conditions: source organism: Vaccinia virus WR
pKd: −log10 of the molar value.
readout.name: pKd

- sequence.input: "RSHIRKPPS"
  tgt: "HLA-A*32:01"
  result.comparator: "≤"
  quantitative.result: 4.11
- sequence.input: "SMSEIINNI"
  tgt: "HLA-A*32:01"
  result.comparator: "="
  quantitative.result: 6.61
- sequence.input: "RLQPNQPPK"
  tgt: "HLA-A*32:01"
  result.comparator: "="
  quantitative.result: 5.82
- sequence.input: "KTIYLLSLF"
  tgt: "HLA-A*32:01"
  result.comparator: "="
  quantitative.result: 7.99
- sequence.input: "MLMNHVANF"
  tgt: "HLA-A*32:01"
  result.comparator: "="
  quantitative.result: 8.08
- sequence.input: "MIKIALSVA"
  tgt: "HLA-A*32:01"
  result.comparator: "="
  quantitative.result: 5.33
- sequence.input: "MTNTMRNAI"
  tgt: "HLA-A*32:01"
  result.comparator: "="
  quantitative.result: 6.97
- sequence.input: "LIRNKRLSL"
  tgt: "HLA-A*32:01"
  result.comparator: "≤"
  quantitative.result: 4.11
- sequence.input: "LIGARRTSF"
  tgt: "HLA-A*32:01"
  result.comparator: "="
  quantitative.result: 5.24
- sequence.input: "SSKVFLKAF"
  tgt: "HLA-A*32:01"
  result.comparator: "="
  quantitative.result: 5.15

====

Biological target: HLA-B*44:02
Assay: IEDB peptide-MHC binding, purified MHC/direct/fluorescence; filed as Kd, often an IC50 or EC50 that approximates it; bounds were set here for any values at or beyond the usual limits of such assays
Conditions: source organism: Giardia lamblia ATCC 50803
pKd: −log10 of the molar value.
List of pKd values.
readout.name: pKd

- sequence.input: "RHIAIQVCY"
  readout.name: "pKd"
  result: "≤ 4.70"
- sequence.input: "AEFPVGSTA"
  readout.name: "pKd"
  result: "≤ 4.70"
- sequence.input: "TTIEDILPK"
  readout.name: "pKd"
  result: "≤ 4.70"

====

Property: Kd; scope: individual sequences
Biological target: HLA-B*39:01
Assay: IEDB peptide-MHC binding, purified MHC/competitive/fluorescence; filed as Kd, often an IC50 or EC50 that approximates it; bounds were set here for any values at or beyond the usual limits of such assays
Details: source organism: Yersinia pestis Nepal516
readout.name: Kd (nM)

- sequence.input: "AQRELFFTL"
  quantitative.result: 332
- sequence.input: "YRYCHQLAL"
  quantitative.result: 1.2

====

Biological target: HLA-B*38:01
Assay: IEDB peptide-MHC binding, purified MHC/competitive/fluorescence; filed as Kd, often an IC50 or EC50 that approximates it; bounds were set here for any values at or beyond the usual limits of such assays
Conditions: source organism: Human immunodeficiency virus 1
readout.name: Kd

- sequence.input: "GSEEIKSLF"
  tgt: "HLA-B*38:01"
  readout.name: "Kd"
  result: "≥ 20 µM"

====

Target: HLA-A*68:01
Assay: IEDB peptide-MHC binding, purified MHC/competitive/radioactivity; filed as Kd, often an IC50 or EC50 that approximates it; bounds were set here for any values at or beyond the usual limits of such assays
Details: source organism: SARS coronavirus Tor2
pKd: −log10 of the molar value.

- sequence.input: "MSLSEQLRK"
  result.comparator: "="
  pKd: 6.77
- sequence.input: "VTYVPSQER"
  result.comparator: "="
  pKd: 5.95
- sequence.input: "DFYDFAVSK"
  result.comparator: "="
  pKd: 7.24
- sequence.input: "SFYYIWKSY"
  result.comparator: "="
  pKd: 6.35
- sequence.input: "VVPDYGTYK"
  result.comparator: "="
  pKd: 6.31
- sequence.input: "STNLCTHSFR"
  result.comparator: "="
  pKd: 8.21
- sequence.input: "ATKIIALNK"
  result.comparator: "="
  pKd: 4.80
- sequence.input: "KFTTSLSLHK"
  result.comparator: "="
  pKd: 6.52
- sequence.input: "TQVLKTMSLY"
  result.comparator: "="
  pKd: 4.99
- sequence.input: "FVASFRLFAR"
  result.comparator: "="
  pKd: 9.97
- sequence.input: "AVHDFFKFR"
  result.comparator: "="
  pKd: 7.95
- sequence.input: "GVIADYNYK"
  result.comparator: "="
  pKd: 7.14
- sequence.input: "TVYDDAARR"
  result.comparator: "="
  pKd: 8.60
- sequence.input: "SQMLLIVLK"
  result.comparator: "="
  pKd: 6.51
- sequence.input: "VLCNSQTSLR"
  result.comparator: "="
  pKd: 6.00
- sequence.input: "PQVGGLTSIK"
  result.comparator: "≤"
  pKd: 4.43
- sequence.input: "ALLSTDGNK"
  result.comparator: "≤"
  pKd: 4.63
- sequence.input: "QSADASTFLK"
  result.comparator: "="
  pKd: 7.31
- sequence.input: "MLAHAEETRK"
  result.comparator: "="
  pKd: 6.80
- sequence.input: "CVDIPGIPK"
  result.comparator: "="
  pKd: 6.99

====

Molecular target: HLA-A*26:01
Test: IEDB peptide-MHC binding, purified MHC/competitive/radioactivity; filed as Kd, often an IC50 or EC50 that approximates it; bounds were set here for any values at or beyond the usual limits of such assays
Conditions: source organism: Dengue virus 1 Brazil/97-11/1997
With a cut-off of 2 µM, any Kd strictly below it is called True; any Kd meeting it or above is called False.

- sequence.input: "CIAVGMVTLY"
  class: "True"
- sequence.input: "EMAEALKGM"
  class: "False"
- sequence.input: "FCIKILNPY"
  class: "False"
- sequence.input: "FTMAHRKPTY"
  class: "True"
- sequence.input: "HTIENTTAN"
  class: "False"

====

Entries and their pKd
Target: HLA-B*40:02
Experiment: IEDB peptide-MHC binding, purified MHC/competitive/radioactivity; filed as Kd, often an IC50 or EC50 that approximates it; bounds were set here for any values at or beyond the usual limits of such assays
Conditions: source organism: Mammarenavirus lassaense
pKd: −log10 of the molar value.
readout.name: pKd

- sequence.input: "AEFKSRFFVW"
  readout.name: "pKd"
  result.comparator: "="
  quantitative.result: 7.53
- sequence.input: "EELITDTEFL"
  readout.name: "pKd"
  result.comparator: "≤"
  quantitative.result: 4.62
- sequence.input: "REVGDTSSDL"
  readout.name: "pKd"
  result.comparator: "="
  quantitative.result: 5.87

====

Target: HLA-A*02:19
Assay: IEDB peptide-MHC binding, purified MHC/competitive/fluorescence; filed as Kd, often an IC50 or EC50 that approximates it; bounds were set here for any values at or beyond the usual limits of such assays
Conditions: source organism: Cryptosporidium parvum Iowa II
readout.name: Kd

- sequence.input: "KIFKVTGEF"
  result: "≥ 20 µM"

====

Biological target: HLA-A*01:01
Assay: IEDB peptide-MHC binding, purified MHC/competitive/radioactivity; filed as Kd, often an IC50 or EC50 that approximates it; bounds were set here for any values at or beyond the usual limits of such assays
Details: source organism: Mammarenavirus guanaritoense
pKd: −log10 of the molar value.

- sequence.input: "CSKILDLCY"
  tgt: "HLA-A*01:01"
  pKd: 7.27
- sequence.input: "WCEFVDFSV"
  tgt: "HLA-A*01:01"
  pKd: 6.47
- sequence.input: "SWLDFDEKLV"
  tgt: "HLA-A*01:01"
  pKd: 5.21

====

Biological target: HLA-B*08:01
Assay: IEDB peptide-MHC binding, purified MHC/competitive/radioactivity; filed as Kd, often an IC50 or EC50 that approximates it; bounds were set here for any values at or beyond the usual limits of such assays
Settings: source organism: Dengue virus 3 Martinique/1243/1999
pKd: −log10 of the molar value.

- sequence.input: "RLKMDKLEL"
  pKd: 6.25

====

Biological target: HLA-A*26:01
Assay: IEDB peptide-MHC binding, purified MHC/direct/fluorescence; filed as Kd, often an IC50 or EC50 that approximates it; bounds were set here for any values at or beyond the usual limits of such assays
Details: source organism: Vibrio vulnificus CMCP6
pKd: −log10 of the molar value.

- sequence.input: "MPIAAAIGT"
  pKd: "≤ 4.70"
